Values compiled from ChEMBL document CHEMBL1156108.

SYSTEM NAME: Mitogen-activated protein kinase 11 (Homo sapiens, UniProt Q15759)
Sequence (Q15759 whole entry): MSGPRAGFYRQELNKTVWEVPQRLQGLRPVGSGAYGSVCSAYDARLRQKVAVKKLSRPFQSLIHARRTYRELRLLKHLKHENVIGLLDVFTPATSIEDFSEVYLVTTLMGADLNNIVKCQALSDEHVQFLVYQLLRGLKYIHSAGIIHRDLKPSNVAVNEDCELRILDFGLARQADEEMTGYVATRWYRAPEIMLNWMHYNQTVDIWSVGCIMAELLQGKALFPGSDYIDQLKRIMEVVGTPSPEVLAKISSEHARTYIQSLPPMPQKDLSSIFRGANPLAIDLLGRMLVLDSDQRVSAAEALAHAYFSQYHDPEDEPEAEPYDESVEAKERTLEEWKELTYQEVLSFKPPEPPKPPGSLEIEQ
EXPERIMENT SUMMARY: Inhibition of p38beta by FRET assay
MEASUREMENT TYPE: pIC50
One number for each entry, as −log10 of the molar value.

Q. Can you look up the measured pIC50 of "C#Cn1c(C#CCCO)nc(-c2ccc(F)cc2)c1-c1ccncc1" for me?
A. 5.27

====

Kindly state inhibition at 10 µM for each of the entries shown.
SYSTEM NAME: CYP2D6 (Homo sapiens)
Sequence (P10635 whole entry): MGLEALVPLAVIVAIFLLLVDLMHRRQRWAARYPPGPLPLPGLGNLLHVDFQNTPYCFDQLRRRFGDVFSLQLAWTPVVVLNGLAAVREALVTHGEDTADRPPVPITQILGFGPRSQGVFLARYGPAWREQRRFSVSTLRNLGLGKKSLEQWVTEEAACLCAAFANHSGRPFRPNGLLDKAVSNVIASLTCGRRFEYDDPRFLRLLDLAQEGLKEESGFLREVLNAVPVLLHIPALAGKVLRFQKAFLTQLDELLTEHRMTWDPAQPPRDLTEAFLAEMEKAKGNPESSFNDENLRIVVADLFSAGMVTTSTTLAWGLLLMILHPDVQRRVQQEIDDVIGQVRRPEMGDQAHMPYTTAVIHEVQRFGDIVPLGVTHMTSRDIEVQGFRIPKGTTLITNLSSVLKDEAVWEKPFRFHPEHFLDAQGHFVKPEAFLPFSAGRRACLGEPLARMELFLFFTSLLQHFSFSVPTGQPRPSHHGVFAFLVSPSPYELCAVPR
EXPERIMENT SUMMARY: Inhibition of CYP2D6 at 10 uM
Type: ADME
Write your answer as a measured quantity: the number, then the unit.

C[S+]([O-])c1ccc(-c2nc(-c3ccncc3)c(-c3ccc(F)cc3)[nH]2)cc1 (configuration not stated) [SB-203580] | 78%

Q. Can you look up the measured inhibition at 10 µM of "C#Cn1c(C#CCCO)nc(-c2ccc(F)cc2)c1-c1ccncc1" for me?
A. 4%

====

SYSTEM NAME: Mitogen-activated protein kinase 14 (Homo sapiens)
Sequence (Q16539 whole entry): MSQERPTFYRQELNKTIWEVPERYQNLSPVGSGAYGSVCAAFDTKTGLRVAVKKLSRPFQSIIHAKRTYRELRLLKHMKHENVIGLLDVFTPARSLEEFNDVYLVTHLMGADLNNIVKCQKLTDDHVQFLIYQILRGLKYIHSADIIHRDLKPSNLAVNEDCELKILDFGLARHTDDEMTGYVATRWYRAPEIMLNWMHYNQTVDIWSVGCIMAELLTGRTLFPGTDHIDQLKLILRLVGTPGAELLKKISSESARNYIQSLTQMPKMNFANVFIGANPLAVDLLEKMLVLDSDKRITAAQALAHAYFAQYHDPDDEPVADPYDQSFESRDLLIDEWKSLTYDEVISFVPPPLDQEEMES
EXPERIMENT SUMMARY: Inhibition of p38alpha at 10 uM by FRET assay
MEASUREMENT TYPE: inhibition
Write your answer as a measured quantity: the number, then the unit.

Solved cases (3 shown):
C#Cn1c(C#CCCO)nc(-c2ccc(F)cc2)c1-c1ccncc1 | 100%
OCCC#Cc1nc(-c2ccncc2)c(-c2ccc(F)cc2)n1C#Cc1ccccc1 | 53%
OCC#Cc1nc(-c2ccc(F)cc2)c(-c2ccncc2)n1C#Cc1ccccc1 | 83%

Take each entry in turn and give its inhibition.
1. OCC#Cc1nc(-c2ccncc2)c(-c2ccc(F)cc2)n1C#Cc1ccccc1
2. C#Cc1nc(-c2ccc(F)cc2)c(-c2ccncc2)n1C#Cc1ccccc1
3. OCCC#Cc1nc(-c2ccc(F)cc2)c(-c2ccncc2)n1C#Cc1ccccc1
4. C#Cc1nc(-c2ccncc2)c(-c2ccc(F)cc2)n1C#Cc1ccccc1

A.
["63%", "28%", "75%", "19%"]

====

SYSTEM NAME: Mitogen-activated protein kinase kinase kinase kinase 4 (Homo sapiens)
Sequence (O95819 whole entry): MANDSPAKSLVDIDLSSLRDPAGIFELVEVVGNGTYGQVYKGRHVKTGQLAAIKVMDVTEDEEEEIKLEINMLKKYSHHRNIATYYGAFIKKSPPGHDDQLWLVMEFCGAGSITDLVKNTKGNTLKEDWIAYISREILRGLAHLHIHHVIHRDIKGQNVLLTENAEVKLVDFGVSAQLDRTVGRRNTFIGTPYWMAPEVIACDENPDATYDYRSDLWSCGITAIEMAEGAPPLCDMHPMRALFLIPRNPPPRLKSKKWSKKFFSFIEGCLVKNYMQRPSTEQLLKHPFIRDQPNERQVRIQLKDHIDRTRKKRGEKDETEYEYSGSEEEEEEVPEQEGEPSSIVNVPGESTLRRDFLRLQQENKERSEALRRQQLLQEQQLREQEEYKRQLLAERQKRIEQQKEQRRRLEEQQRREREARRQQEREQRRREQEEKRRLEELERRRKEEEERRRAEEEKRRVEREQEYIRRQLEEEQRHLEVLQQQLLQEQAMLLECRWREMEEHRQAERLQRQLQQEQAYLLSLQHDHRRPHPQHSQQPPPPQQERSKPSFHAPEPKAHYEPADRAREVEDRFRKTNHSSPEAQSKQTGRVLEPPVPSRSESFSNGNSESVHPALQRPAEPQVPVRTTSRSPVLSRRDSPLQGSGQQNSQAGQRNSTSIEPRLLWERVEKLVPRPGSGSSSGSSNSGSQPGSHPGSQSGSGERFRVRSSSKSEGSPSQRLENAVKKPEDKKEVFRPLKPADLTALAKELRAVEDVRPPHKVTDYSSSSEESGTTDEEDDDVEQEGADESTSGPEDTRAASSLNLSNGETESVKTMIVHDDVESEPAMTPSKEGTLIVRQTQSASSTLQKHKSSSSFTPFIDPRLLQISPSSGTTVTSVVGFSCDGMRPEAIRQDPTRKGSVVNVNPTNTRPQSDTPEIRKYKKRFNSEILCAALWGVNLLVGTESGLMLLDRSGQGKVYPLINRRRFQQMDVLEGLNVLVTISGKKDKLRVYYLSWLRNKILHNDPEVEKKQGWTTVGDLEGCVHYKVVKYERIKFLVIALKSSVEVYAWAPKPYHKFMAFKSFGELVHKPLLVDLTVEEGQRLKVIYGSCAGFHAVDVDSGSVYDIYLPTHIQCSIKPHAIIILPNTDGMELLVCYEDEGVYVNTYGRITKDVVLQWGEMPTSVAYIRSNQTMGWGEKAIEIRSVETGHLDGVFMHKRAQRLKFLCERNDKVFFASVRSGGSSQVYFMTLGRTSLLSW
EXPERIMENT SUMMARY: Inhibition of human MAP4K4 by FRET assay
MEASUREMENT TYPE: pIC50
Numbers only, as −log10 of the molar value.

Q. Can you look up the measured pIC50 of "C#Cn1c(C#CCCO)nc(-c2ccc(F)cc2)c1-c1ccncc1" for me?
A. 5.38
